tgt: EGFR del19/C797S (Homo sapiens, UniProt P00533, C797S/DEL746-750)
Sequence (P00533 with tags, fused parts or gaps DEL746-750/C797S): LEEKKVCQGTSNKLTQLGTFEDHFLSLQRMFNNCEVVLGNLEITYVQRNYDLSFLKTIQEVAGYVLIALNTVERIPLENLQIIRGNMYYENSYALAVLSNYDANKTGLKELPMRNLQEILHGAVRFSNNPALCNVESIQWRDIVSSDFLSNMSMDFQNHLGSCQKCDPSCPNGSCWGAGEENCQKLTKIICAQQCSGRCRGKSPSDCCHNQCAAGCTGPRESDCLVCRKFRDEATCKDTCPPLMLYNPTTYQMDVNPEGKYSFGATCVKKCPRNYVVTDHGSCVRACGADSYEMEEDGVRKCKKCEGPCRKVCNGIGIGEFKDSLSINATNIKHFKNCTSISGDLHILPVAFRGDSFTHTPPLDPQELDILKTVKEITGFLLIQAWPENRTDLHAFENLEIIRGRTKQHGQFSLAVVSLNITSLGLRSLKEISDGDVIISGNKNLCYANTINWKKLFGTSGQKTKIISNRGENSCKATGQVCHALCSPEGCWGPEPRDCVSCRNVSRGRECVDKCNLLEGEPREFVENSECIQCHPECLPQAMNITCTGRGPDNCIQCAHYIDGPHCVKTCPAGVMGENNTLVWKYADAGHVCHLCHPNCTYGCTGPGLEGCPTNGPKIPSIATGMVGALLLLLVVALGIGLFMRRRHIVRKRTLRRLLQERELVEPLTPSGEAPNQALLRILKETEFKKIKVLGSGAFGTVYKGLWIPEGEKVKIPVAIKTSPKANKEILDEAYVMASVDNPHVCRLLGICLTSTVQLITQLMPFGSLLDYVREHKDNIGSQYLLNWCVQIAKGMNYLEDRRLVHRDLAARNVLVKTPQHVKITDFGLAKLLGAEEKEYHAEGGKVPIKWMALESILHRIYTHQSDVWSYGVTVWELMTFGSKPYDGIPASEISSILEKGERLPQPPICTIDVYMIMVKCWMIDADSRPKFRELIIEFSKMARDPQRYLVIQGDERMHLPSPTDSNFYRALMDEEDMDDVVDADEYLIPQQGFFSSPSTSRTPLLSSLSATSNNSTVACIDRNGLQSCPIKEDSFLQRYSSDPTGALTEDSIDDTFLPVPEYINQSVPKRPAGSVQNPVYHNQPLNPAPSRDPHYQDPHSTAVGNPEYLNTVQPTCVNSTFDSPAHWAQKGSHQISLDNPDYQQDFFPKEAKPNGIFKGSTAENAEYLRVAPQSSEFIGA
run.description: Biochemical EGFR kinase assay (Lance Ultra TR-FRET), double mutant del19/C797S
assay.setup: IC50 del19/C797S (nM) 100 μM ATP, 100 μM ATP
parameter: log10(IC50) (log10 of the value in nM)
All values: base-10 log of IC50 in nM.

Illustrative cases are given below, each with its answer.
{"columns": ["structure.smiles.string", "log10(IC50)"],
 "data": [
  ["CN(C)C[C@H]1CC[C@@H](Nc2cc(Nc3ccnc(-c4cnn(S(=O)(=O)C5CC5)c4)n3)ncc2-c2ccc(N3CCC(F)(F)CC3)nn2)CC1", -0.30],
  ["C[C@]1(O)CC[C@@H](Nc2cc(Nc3ccnc(-c4cnn(S(=O)(=O)C5CC5)c4)n3)ncc2-c2cccnn2)CC1", -0.70]
]}

Entry C[C@]1(O)CC[C@@H](Nc2cc(Nc3ccnc(-c4cnn(S(=O)(=O)C5CC5)c4)n3)ncc2-c2ccc(CN3CCOCC3)cn2)CC1 ; log10(IC50) = -1.00

Entry O=S(=O)(C1CC1)n1cc(-c2nccc(Nc3cc(N[C@H]4CC[C@@H](CO)CC4)c(-c4ccc(CN5CCC(O)CC5)cn4)cn3)n2)cn1 ; log10(IC50) = -0.52

Entry CC(C)(O)c1ccnc(-c2cnc(Nc3ccnc(-c4cnn(S(=O)(=O)C5CC5)c4)n3)cc2N[C@H]2CC[C@@](C)(O)CC2)c1 ; log10(IC50) = -0.05

Entry C[C@]1(O)CC[C@@H](Nc2cc(Nc3ccnc(-c4cnn(S(=O)(=O)C5CC5)c4)n3)ncc2-c2ccc(N3CCC(O)CC3)cn2)CC1 ; log10(IC50) = -0.10

Entry Cc1ccc(-c2cnc(Nc3ccnc(-c4cnn(S(=O)(=O)C5CC5)c4)n3)cc2N[C@H]2CC[C@@](C)(O)CC2)nn1 ; log10(IC50) = -0.22

Entry CN(C)C[C@H]1CC[C@@H](Nc2cc(Nc3ccnc(-c4cnn(S(=O)(=O)C5CC5)c4)n3)ncc2-c2cc(C(C)(C)O)ccn2)CC1 ; log10(IC50) = -0.52

Entry C[C@]1(O)CC[C@@H](Nc2cc(Nc3ccnc(-c4cnn(S(=O)(=O)C5CC5)c4)n3)ncc2-c2ccccn2)CC1 ; log10(IC50) = -0.70

Entry CN(C)CCOc1cnc(-c2cnc(Nc3ccnc(-c4cnn(S(=O)(=O)C5CC5)c4)n3)cc2N[C@H]2CC[C@@H](CO)CC2)cn1 ; log10(IC50) = -1.00

====

tgt: EGFR L858R/C797S (Homo sapiens, UniProt P00533, C797S/L858R)
Sequence (P00533 25-1210 C797S/L858R): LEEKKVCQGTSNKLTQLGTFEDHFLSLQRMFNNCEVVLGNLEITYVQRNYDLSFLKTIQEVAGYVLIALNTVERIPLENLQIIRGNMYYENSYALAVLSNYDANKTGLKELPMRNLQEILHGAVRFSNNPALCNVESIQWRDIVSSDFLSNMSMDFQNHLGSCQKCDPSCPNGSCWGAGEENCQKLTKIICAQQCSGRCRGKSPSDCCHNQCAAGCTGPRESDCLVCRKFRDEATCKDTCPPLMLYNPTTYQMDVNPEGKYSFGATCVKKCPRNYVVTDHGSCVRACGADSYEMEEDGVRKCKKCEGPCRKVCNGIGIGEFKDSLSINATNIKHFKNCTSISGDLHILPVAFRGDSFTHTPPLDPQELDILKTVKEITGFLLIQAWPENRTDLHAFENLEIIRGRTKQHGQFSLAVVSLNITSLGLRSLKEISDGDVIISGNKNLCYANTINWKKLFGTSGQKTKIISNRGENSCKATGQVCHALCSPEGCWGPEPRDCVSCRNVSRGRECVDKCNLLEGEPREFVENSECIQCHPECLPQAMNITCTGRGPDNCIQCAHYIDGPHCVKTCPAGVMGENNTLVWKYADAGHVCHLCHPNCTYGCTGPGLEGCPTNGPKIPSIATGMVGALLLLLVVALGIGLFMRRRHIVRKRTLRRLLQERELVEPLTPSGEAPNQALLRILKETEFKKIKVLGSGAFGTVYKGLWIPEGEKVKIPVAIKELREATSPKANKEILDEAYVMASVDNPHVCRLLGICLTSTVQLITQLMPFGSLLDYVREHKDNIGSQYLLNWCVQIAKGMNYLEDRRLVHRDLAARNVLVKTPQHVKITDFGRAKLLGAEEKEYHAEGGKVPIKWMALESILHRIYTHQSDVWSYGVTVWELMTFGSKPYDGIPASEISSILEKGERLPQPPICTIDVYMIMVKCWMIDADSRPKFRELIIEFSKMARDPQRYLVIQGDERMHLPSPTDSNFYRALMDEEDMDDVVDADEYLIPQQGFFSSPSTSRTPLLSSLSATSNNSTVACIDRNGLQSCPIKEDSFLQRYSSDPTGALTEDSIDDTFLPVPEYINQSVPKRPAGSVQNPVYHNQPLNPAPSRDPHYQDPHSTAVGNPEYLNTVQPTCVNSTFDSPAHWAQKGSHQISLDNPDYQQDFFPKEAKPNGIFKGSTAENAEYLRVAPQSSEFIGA
run.description: Biochemical EGFR kinase assay (Lance Ultra TR-FRET), double mutant L858R/C797S
assay.setup: ATP at Km; read-out: IC50 L858R/C797S, Km ATP
Let's look at some compounds and their measured pIC50.
Please keep in mind that pIC50 is minus log10 of the molar concentration; only the number is needed.

Illustrative cases are given below, each with its answer.
{"columns": ["compound", "parameter", "measurement"],
 "data": [
  ["CN1CCC(Oc2ccc(-c3cnc(Nc4ccnc(-c5cnn(S(=O)(=O)C6CC6)c5)n4)cc3N[C@H]3CC[C@@](C)(O)CC3)nc2)CC1", "pIC50", 9.40],
  ["CN(C)C[C@H]1CC[C@@H](Nc2cc(Nc3ccnc(-c4cnn(S(=O)(=O)C5CC5)c4)n3)ncc2-c2ccc(OC(F)(F)F)cn2)CC1", "pIC50", 9.52],
  ["CC(C)(F)c1ccc(-c2cnc(Nc3ccnc(-c4cnn(S(=O)(=O)C5CC5)c4)n3)cc2N[C@H]2CC[C@@H](CO)CC2)nc1", "pIC50", 9.00],
  ["CN1CCC(Oc2cccc(-c3cnc(Nc4ccnc(-c5cnn(S(=O)(=O)C6CC6)c5)n4)cc3N[C@H]3CC[C@@](C)(O)CC3)n2)CC1", "pIC50", 10.00],
  ["CC(C)(O)c1ccc(-c2cnc(Nc3ccnc(-c4cnn(S(=O)(=O)C5CC5)c4)n3)cc2N[C@H]2CC[C@@H](C(C)(C)O)CC2)nc1", "pIC50", 9.40],
  ["CC(C)(F)c1ccc(-c2cnc(Nc3ccnc(-c4cnn(S(=O)(=O)C5CC5)c4)n3)cc2N[C@H]2CC[C@@](C)(O)CC2)nc1", "pIC50", 8.64],
  ["O=S(=O)(C1CC1)n1cc(-c2nccc(Nc3cc(NC4CCC(F)CC4)c(-c4cnc(OC5CCOC5)cn4)cn3)n2)cn1 (stereo not drawn)", "pIC50", 7.88],
  ["CN1CCC(Oc2ccc(-c3cnc(Nc4nc(-c5cnn(S(=O)(=O)C6CC6)c5)ncc4F)cc3N[C@H]3CC[C@@](C)(O)CC3)nc2)CC1", "pIC50", 9.70]
]}

Entry COC(c1ccc(-c2cnc(Nc3ccnc(-c4cnn(S(=O)(=O)C5CC5)c4)n3)cc2NC2CCC(CN(C)C)CC2)nc1)C(F)(F)F (stereo not drawn) ; pIC50 = 9.05

====

tgt: EGFR del19/T790M/C797S (Homo sapiens, UniProt P00533, C797S/DEL746-750/T790M)
Sequence (P00533 with tags, fused parts or gaps DEL746-750/T790M/C797S): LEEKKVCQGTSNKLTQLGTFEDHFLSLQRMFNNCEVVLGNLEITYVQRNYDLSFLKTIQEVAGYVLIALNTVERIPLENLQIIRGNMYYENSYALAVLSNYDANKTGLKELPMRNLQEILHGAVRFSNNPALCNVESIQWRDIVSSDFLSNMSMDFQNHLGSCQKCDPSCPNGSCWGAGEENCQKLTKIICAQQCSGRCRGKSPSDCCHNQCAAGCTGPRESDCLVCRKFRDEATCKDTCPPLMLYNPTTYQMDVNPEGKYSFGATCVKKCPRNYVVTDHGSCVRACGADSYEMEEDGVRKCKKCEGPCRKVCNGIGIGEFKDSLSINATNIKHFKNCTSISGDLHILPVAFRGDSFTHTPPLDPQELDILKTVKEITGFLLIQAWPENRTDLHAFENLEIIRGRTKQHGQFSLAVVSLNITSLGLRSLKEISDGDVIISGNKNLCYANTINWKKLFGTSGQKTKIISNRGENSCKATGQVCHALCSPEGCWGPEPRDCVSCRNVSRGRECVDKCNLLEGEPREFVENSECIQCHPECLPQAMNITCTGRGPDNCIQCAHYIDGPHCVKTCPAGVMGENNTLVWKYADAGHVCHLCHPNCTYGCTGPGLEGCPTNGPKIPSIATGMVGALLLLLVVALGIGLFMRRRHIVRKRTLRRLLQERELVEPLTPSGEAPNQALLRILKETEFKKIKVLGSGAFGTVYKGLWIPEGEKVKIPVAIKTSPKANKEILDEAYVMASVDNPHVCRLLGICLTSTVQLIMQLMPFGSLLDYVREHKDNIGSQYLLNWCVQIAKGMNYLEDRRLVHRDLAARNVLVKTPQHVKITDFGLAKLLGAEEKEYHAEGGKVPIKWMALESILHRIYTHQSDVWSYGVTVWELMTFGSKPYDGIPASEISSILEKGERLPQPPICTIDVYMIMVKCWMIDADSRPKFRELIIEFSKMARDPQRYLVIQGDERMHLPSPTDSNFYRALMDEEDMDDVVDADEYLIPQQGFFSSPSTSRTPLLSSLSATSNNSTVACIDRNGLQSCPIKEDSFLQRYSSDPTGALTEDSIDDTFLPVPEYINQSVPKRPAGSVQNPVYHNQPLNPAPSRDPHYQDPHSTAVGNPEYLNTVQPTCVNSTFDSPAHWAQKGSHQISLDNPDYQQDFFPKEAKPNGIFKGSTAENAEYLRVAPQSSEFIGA
run.description: Biochemical EGFR kinase assay (Lance Ultra TR-FRET), triple mutant del19/T790M/C797S
assay.setup: Km ATP; read-out: IC50 del19/T790M/C797S (nM) Km ATP
parameter: IC50 (nM)
Return type: number; implicit unit nM.

Illustrative cases are given below, each with its answer.
{"columns": ["molecule", "u", "measurement"],
 "data": [
  ["CC(C)(O)[C@H]1CC[C@@H](Nc2cc(Nc3ccnc(-c4cnn(S(=O)(=O)C5CC5)c4)n3)ncc2-c2cnc(OC(F)F)cn2)CC1 [Example 130]", "nM", 3.9],
  ["C[C@]1(O)CC[C@@H](Nc2cc(Nc3ccnc(-c4cnn(S(=O)(=O)C5CC5)c4)n3)ncc2-c2cc(CN3CCC(F)(F)CC3)ccn2)CC1 [Example 112]", "nM", 4.5],
  ["CN(C)c1cnc(-c2cnc(Nc3ccnc(-c4cnn(S(=O)(=O)C5CC5)c4)n3)cc2N[C@H]2CC[C@@](C)(O)CC2)nc1 [Example 39]", "nM", 1],
  ["CN1CCC(Oc2ccc(-c3cnc(Nc4ccnc(-c5cnn(CC(F)F)c5)n4)cc3NC3CC(F)(F)C3)nc2)CC1 [Example 139]", "nM", 0.3],
  ["CC(C)Nc1cc(Nc2ccnc(-c3cnn(S(=O)(=O)C4CC4)c3)n2)ncc1-c1ccc(CN2CCOCC2)cn1 [Example 125]", "nM", 0.7]
]}

Entry CN(C)C[C@H]1CC[C@@H](Nc2cc(Nc3ccnc(-c4cnn(S(=O)(=O)C5CC5)c4)n3)ncc2-c2cc(C(C)(C)O)c(F)cn2)CC1 [Example 107] ; IC50 = 0.3

Entry CC(C)(O)c1cc(-c2cnc(Nc3ccnc(-c4cnn(S(=O)(=O)C5CC5)c4)n3)cc2N[C@H]2CC[C@@H](CO)CC2)ncc1F [Example 105] ; IC50 = 2.1

Entry COC1CN(c2ccc(-c3cnc(Nc4ccnc(-c5cnn(S(=O)(=O)C6CC6)c5)n4)cc3N[C@H]3CC[C@@H](CN(C)C)CC3)nc2)C1 [Example 93] ; IC50 = 0.3

Entry CN(C)C[C@H]1CC[C@@H](Nc2cc(Nc3ccnc(-c4cnn(S(=O)(=O)C5CC5)c4)n3)ncc2-c2cc(C(C)(C)O)ccn2)CC1 [Example 110] ; IC50 = 0.1

Entry C[C@]1(O)CC[C@@H](Nc2cc(Nc3ccnc(-c4cnn(S(=O)(=O)C5CC5)c4)n3)ncc2-c2cc(N3CCOCC3)ccn2)CC1 [Example 48] ; IC50 = 0.5

Entry C[C@]1(O)CC[C@@H](Nc2cc(Nc3ccnc(-c4cnn(S(=O)(=O)C5CC5)c4)n3)ncc2-c2cccnn2)CC1 [Example 42] ; IC50 = 0.1

====

tgt: EGFR wildtype (Homo sapiens)
Sequence (P00533 25-1210): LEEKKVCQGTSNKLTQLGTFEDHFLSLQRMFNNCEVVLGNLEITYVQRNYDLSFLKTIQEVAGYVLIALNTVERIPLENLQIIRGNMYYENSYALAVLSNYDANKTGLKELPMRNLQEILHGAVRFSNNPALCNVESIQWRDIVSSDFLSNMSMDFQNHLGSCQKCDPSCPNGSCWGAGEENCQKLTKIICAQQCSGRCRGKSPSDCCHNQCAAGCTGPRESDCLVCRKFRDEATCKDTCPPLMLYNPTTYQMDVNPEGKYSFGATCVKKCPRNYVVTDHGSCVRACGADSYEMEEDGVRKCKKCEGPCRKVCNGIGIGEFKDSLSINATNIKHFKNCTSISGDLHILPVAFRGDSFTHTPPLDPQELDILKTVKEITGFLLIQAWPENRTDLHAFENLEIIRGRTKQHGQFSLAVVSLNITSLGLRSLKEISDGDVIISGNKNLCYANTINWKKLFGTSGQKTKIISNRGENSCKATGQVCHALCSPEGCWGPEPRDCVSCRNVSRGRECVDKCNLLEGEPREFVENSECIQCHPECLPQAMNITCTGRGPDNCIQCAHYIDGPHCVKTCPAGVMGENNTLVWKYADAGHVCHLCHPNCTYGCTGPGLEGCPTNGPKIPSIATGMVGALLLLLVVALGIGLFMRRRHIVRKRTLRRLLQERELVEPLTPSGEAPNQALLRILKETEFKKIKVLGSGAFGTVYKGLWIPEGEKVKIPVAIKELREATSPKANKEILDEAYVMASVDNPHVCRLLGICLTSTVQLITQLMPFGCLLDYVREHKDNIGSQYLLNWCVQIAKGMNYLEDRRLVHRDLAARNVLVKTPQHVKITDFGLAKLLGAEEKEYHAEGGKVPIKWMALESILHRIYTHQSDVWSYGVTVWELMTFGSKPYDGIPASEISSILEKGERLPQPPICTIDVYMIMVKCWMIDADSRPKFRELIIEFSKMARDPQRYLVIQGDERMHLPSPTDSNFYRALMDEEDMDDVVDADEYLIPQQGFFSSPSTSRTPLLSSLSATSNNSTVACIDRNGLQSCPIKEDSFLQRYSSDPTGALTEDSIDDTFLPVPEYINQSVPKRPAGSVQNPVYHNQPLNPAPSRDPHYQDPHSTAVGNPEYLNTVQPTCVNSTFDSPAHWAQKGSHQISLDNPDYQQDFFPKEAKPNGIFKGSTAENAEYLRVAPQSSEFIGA
run.description: Biochemical EGFR kinase assay (Lance Ultra TR-FRET), wildtype
assay.setup: Km ATP; read-out: IC50 WT (nM) Km ATP
parameter: IC50 (nM)
Return type: number; implicit unit nM.

Illustrative cases are given below, each with its answer.
{"columns": ["structure.smiles.string", "parameter", "measurement"],
 "data": [
  ["CN(C)C[C@H]1CC[C@@H](Nc2cc(Nc3ccnc(-c4cnn(S(=O)(=O)C5CC5)c4)n3)ncc2-c2ccc(N3CCC(F)(F)CC3)nn2)CC1", "IC50", 2.2],
  ["O=S(=O)(C1CC1)n1cc(-c2nccc(Nc3cc(N[C@H]4CC[C@@H](NCCF)CC4)c(-c4ccccn4)cn3)n2)cn1", "IC50", 5.8],
  ["Cc1ccc(-c2cnc(Nc3ccnc(-c4cnn(S(=O)(=O)C5CC5)c4)n3)cc2N[C@H]2CC[C@@](C)(O)CC2)nn1", "IC50", 3]
]}

Entry CN1CCN(c2ccc(-c3cnc(Nc4ccnc(-c5cnn(S(=O)(=O)C6CC6)c5)n4)cc3N[C@H]3CC[C@@](C)(O)CC3)nn2)CC1 ; IC50 = 0.9

Entry C[C@]1(O)CC[C@@H](Nc2cc(Nc3ccnc(-c4cnn(S(=O)(=O)C5CC5)c4)n3)ncc2-c2cccc(CO)n2)CC1 ; IC50 = 1.7
